# Test system: HepG2
# experimentSummary: Cytotoxicity against human HepG2 cells assessed as growth inhibition after 72 hrs by MTT assay
# Format: functional, cell-based
# settings: HepG2, 72 h
attributeMeasured: IC50
Put your answer as a value accompanied by its unit after it.

Known results for compounds:
COc1cc(/C=C2\CCC/C(=C\c3cc(CN(C)C)c(O)c(OC)c3)C2=O)cc(CN(C)C)c1O :: 24.3 µM
COc1cc(/C=C/C(=O)CC(=O)/C=C/c2ccc(O)c(CN(C)C)c2)ccc1O :: 5.2 µM
COc1cc(/C=C/C(=O)CC(=O)/C=C/c2ccc(O)c(OC)c2)ccc1O [CURCUMIN] :: 78.7 µM
CN(C)Cc1cc(/C=C2\CCC/C(=C\c3cc(CN(C)C)c(O)c(CN(C)C)c3)C2=O)ccc1O :: 49.5 µM
COc1cc(/C=C2\CC/C(=C\c3cc(CN(C)C)c(O)c(OC)c3)C2=O)cc(CN(C)C)c1O :: 46.2 µM
CN(C)Cc1cc(/C=C2\CC/C(=C\c3ccc(O)c(CN(C)C)c3)C2=O)ccc1O :: 43.6 µM

Please find the next compound below.
Measured on HepG2, COc1cc(/C=C/C(=O)CC(=O)/C=C/c2ccc(O)c(C[N+](C)(C)C)c2)ccc1O has a documented IC50 of 126 µM

---

# experimentSummary: Antioxidant activity assessed as galvinoxyl free radical scavenging activity at 20 uM relative to control
# Format: functional
Use 50% as the dividing line for Activity, with the line itself on the class 1 side and lower values as class 0.

COc1cc(/C=C/C(=O)CC(=O)/C=C/c2ccc(O)c(OC)c2)ccc1O :: class 0
COc1cc(/C=C/C(=O)CC(=O)/C=C/c2ccc(O)c(CN(C)C)c2)ccc1O :: class 0
CN(C)Cc1cc(/C=C2\CCC/C(=C\c3cc(CN(C)C)c(O)c(CN(C)C)c3)C2=O)ccc1O :: class 0
CN(C)Cc1cc(/C=C2\CC/C(=C\c3ccc(O)c(CN(C)C)c3)C2=O)ccc1O :: class 0
COc1cc(/C=C2\CC/C(=C\c3cc(CN(C)C)c(O)c(OC)c3)C2=O)cc(CN(C)C)c1O :: class 0

Kindly review the next molecule as well.
Q. Is Activity for COc1cc(/C=C2\CCC/C(=C\c3cc(CN(C)C)c(O)c(OC)c3)C2=O)cc(CN(C)C)c1O at or above 50%?
A. class 1

---

Recorded IC50 values for a group of compounds are listed next.
# Tested on: A549
# experimentSummary: Cytotoxicity against human A549 cells assessed as growth inhibition after 72 hrs by MTT assay
# Format: functional, cell-based
# settings: A549, 72 h
State the result as a value with its unit after it.

COc1cc(/C=C/C(=O)CC(=O)/C=C/c2ccc(O)c(OC)c2)ccc1O [CURCUMIN] :: 32.2 µM
COc1cc(/C=C/C(=O)CC(=O)/C=C/c2ccc(O)c(CN(C)C)c2)ccc1O :: 20.2 µM
COc1cc(/C=C2\CCC/C(=C\c3cc(CN(C)C)c(O)c(OC)c3)C2=O)cc(CN(C)C)c1O :: 51.8 µM
CN(C)Cc1cc(/C=C2\CC/C(=C\c3ccc(O)c(CN(C)C)c3)C2=O)ccc1O :: 78.1 µM

We next turn to a different compound, shown below.
The recorded IC50 for entry CN(C)Cc1cc(/C=C2\CCC/C(=C\c3cc(CN(C)C)c(O)c(CN(C)C)c3)C2=O)ccc1O equals 35.5 µM
